Origin of measurements: patent US8691855B2

System: Male ICR mice
PROTOCOL: Analgesic activity test: mouse writhing test by inducing with phenyl-p-quinone
Format: in vivo
COND: po, dose 3 mg/kg, p.o., read-out: Analgesic effect (% Inhibition)
// values below are reported inhibition in vivo at 3 mg/kg
Hi! Could you send only the number? It should be in %, unit omitted.

# example entries with known answers
> print(dat)
                  compound.structure.string  assay.result
1  C[C@@H](NC(=O)c1csc(-c2cc(C(F)(F)F)cc(C(F)(F)F)c2)n1)c1cc(F)c(NS(C)(=O)=O)c(F)c1            41
2  C[C@@H](NC(=O)c1coc(-c2ccc(Cl)c(C(F)(F)F)c2)n1)c1cc(F)c(NS(C)(=O)=O)c(F)c1            25
3  C[C@@H](NC(=O)c1ccc(-c2cccc(C(F)(F)F)c2)o1)c1cc(F)c(NS(C)(=O)=O)c(F)c1            60

Q: System Male ICR mice. Read-out inhibition in vivo at 3 mg/kg. Item C[C@@H](NC(=O)c1coc(-c2cc(C(F)(F)F)cc(C(F)(F)F)c2)n1)c1cc(F)c(NS(C)(=O)=O)c(F)c1 . Report value.
Ans: 59
